# System: 317291-083-R-J1-PDC complex spheroids, viability;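 further: spheroids exposed to compounds for one week before readout; percent viability relative to DMSO vehicle wells taken as 100%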
# protocolNotes: Anticancer human tumor 317291-083-R-J1-PDC patient-derived soft tissue sarcoma cell line growth inhibition [GQUAD]
# experimentalContext: second compound 10 µM; first compound 0.316 µM; hits give low values
testReadout: viability, T/C (%)
Express your answer in %, writing the number without its unit.

Data request: Using the record for CC(C)n1c(=O)n(C)c2cnc3cc(F)c(-c4ccc(OCCCN5CCCCC5)nc4)cc3c21 + CN(C)c1ccc(Nc2c3ccc(NC(=O)CCN4CCCC4)cc3nc3cc(NC(=O)CCN4CCCC4)ccc23)cc1 , report its viability, T/C.
Data returned: 0.88

Data request: Moving on to the next molecule: CC(C)n1c(=O)n(C)c2cnc3cc(F)c(-c4ccc(OCCCN5CCCCC5)nc4)cc3c21 + Cc1cnc(CNC(=O)c2c(=O)c3ccc(N4CCCN(C)CC4)nc3n3c2sc2ccccc23)cn1
Data returned: 10.7

Data request: Moving on to the next molecule: CCc1c2c(nc3ccc(O)cc13)-c1cc3c(c(=O)n1C2)COC(=O)[C@]3(O)CC + Cc1cnc(CNC(=O)c2c(=O)c3ccc(N4CCCN(C)CC4)nc3n3c2sc2ccccc23)cn1
Data returned: 0.18

Data request: Moving on to the next molecule: COc1ccc([C@@H](O)c2cc(-c3ncnc4cc(N5CCOCC5)ccc34)c(F)cc2Cl)nn1 + Cc1cnc(CNC(=O)c2c(=O)c3ccc(N4CCCN(C)CC4)nc3n3c2sc2ccccc23)cn1
Data returned: 17.7

Data request: Moving on to the next molecule: CC(=O)O[C@H]1C(=O)[C@@]2(C)[C@H]([C@H](OC(=O)c3ccccc3)[C@]3(O)C[C@H](OC(=O)[C@H](O)[C@@H](NC(=O)c4ccccc4)c4ccccc4)C(C)=C1C3(C)C)[C@]1(OC(C)=O)CO[C@@H]1C[C@@H]2O + CN(C)c1ccc(Nc2c3ccc(NC(=O)CCN4CCCC4)cc3nc3cc(NC(=O)CCN4CCCC4)ccc23)cc1
Data returned: 0.18

Data request: Moving on to the next molecule: CCCS(=O)(=O)Nc1ccc(F)c(C(=O)c2c[nH]c3ncc(-c4ccc(Cl)cc4)cc23)c1F + CN(C)c1ccc(Nc2c3ccc(NC(=O)CCN4CCCC4)cc3nc3cc(NC(=O)CCN4CCCC4)ccc23)cc1
Data returned: 0.54

Data request: Moving on to the next molecule: C=CCn1c(=O)c2cnc(Nc3ccc(N4CCN(C)CC4)cc3)nc2n1-c1cccc(C(C)(C)O)n1 + Cc1[nH]c2ccc(F)cc2c1-c1nc2c3cccnc3c3ncccc3c2[nH]1
Data returned: 13.4

Data request: Moving on to the next molecule: C=CCn1c(=O)c2cnc(Nc3ccc(N4CCN(C)CC4)cc3)nc2n1-c1cccc(C(C)(C)O)n1 + CN(C)c1ccc(Nc2c3ccc(NC(=O)CCN4CCCC4)cc3nc3cc(NC(=O)CCN4CCCC4)ccc23)cc1
Data returned: 0.18

Data request: Moving on to the next molecule: O=C(c1cc(Cc2n[nH]c(=O)c3ccccc23)ccc1F)N1CCN(C(=O)C2CC2)CC1 + CN(C)c1ccc(Nc2c3ccc(NC(=O)CCN4CCCC4)cc3nc3cc(NC(=O)CCN4CCCC4)ccc23)cc1
Data returned: 14.9

Data request: Moving on to the next molecule: CC1COCCN1c1cc(-c2ccnn2C)c2ccnc(-c3ccn[nH]3)c2n1 (stereo not given) + CN(C)c1ccc(Nc2c3ccc(NC(=O)CCN4CCCC4)cc3nc3cc(NC(=O)CCN4CCCC4)ccc23)cc1
Data returned: 7.04

Values from PubChem BioAssay AID2060497
